Origin of the recorded values: ChEMBL document CHEMBL4145448

experiment: Selectivity index, ratio of CC50 for human HepG2 cells in presence of 1% FBS to MIC for Acinetobacter baumannii ATCC 19606; assay type: toxicity; conditions: read-out: Selectivity Index
Measured selectivity ratio of individual entries
value.kind: selectivity ratio

> print(dat)
                chemical.smiles  readout.relation  assay.value
1   COc1ccc2c(c1)-c1ccccc1[I+]2                 =         0.58
2     Clc1cccc2c1-c1ccccc1[I+]2                 <          2.4
3   Clc1ccc2c(c1)-c1ccccc1[I+]2                 =          3.7
4    Fc1ccc2c(c1)-c1ccccc1[I+]2                 =          2.7
5    Cc1ccc2c(c1)-c1ccccc1[I+]2                 =          2.2
6     COc1cccc2c1-c1ccccc1[I+]2                 =          1.1
7     c1ccc2c(c1)[I+]c1ccccc1-2                 =          3.1
8  N#Cc1ccc2c(c1)-c1ccccc1[I+]2                 =         0.13
9   COc1ccc2c(c1)[I+]c1ccccc1-2                 =         0.39

###

experiment: Selectivity index, ratio of CC50 for human HepG2 cells in presence of 1% FBS to MIC for Pseudomonas aeruginosa isolate 19147nm; type: toxicity; conditions: read-out: Selectivity Index
Rule for this label: 1 means selectivity ratio is less than 2; -1 means selectivity ratio is at least 2.

> print(dat)
                             chemical.smiles  assigned.class
 1               COc1ccc2c(c1)-c1ccccc1[I+]2               1
 2               COc1ccc2c(c1)[I+]c1ccccc1-2               1
 3                 COc1cccc2c1-c1ccccc1[I+]2               1
 4              N#Cc1ccc2c(c1)[I+]c1ccccc1-2               1
 5                 c1ccc2c(c1)[I+]c1ccccc1-2              -1
 6              N#Cc1ccc2c(c1)-c1ccccc1[I+]2              -1
 7                  Cc1cccc2c1-c1ccccc1[I+]2              -1
 8                Fc1ccc2c(c1)-c1ccccc1[I+]2              -1
 9                Fc1ccc2c(c1)[I+]c1ccccc1-2              -1
10               Clc1ccc2c(c1)-c1ccccc1[I+]2              -1
11           c1ccc2c(c1)[I+]c1c-2ccc2ccccc12               1
12  Cc1ccc2c(c1)[I+]c1ccccc1-2.O=S(=O)([O-])C(F)(F)F               1
13                Cc1ccc2c(c1)-c1ccccc1[I+]2              -1

###

assay: Selectivity index, ratio of CC50 for human HepG2 cells in presence of 1% FBS to MIC for Pseudomonas aeruginosa isolate 912; format: toxicity; conditions: read-out: Selectivity Index
value.kind: selectivity ratio

> print(dat)
                             chemical.smiles  readout.relation  assay.value
 1                  Fc1cccc2c1-c1ccccc1[I+]2                 =            1
 2           c1ccc2c(c1)[I+]c1c-2ccc2ccccc12                 =         0.34
 3              N#Cc1ccc2c(c1)-c1ccccc1[I+]2                 =          2.5
 4               Clc1ccc2c(c1)-c1ccccc1[I+]2                 =          3.7
 5                  Cc1cccc2c1-c1ccccc1[I+]2                 =          2.3
 6  Cc1ccc2c(c1)[I+]c1ccccc1-2.O=S(=O)([O-])C(F)(F)F                 =         0.81
 7                Cc1ccc2c(c1)-c1ccccc1[I+]2                 =          4.2
 8               Clc1ccc2c(c1)[I+]c1ccccc1-2                 =            1
 9                 COc1cccc2c1-c1ccccc1[I+]2                 =         0.55
10               COc1ccc2c(c1)[I+]c1ccccc1-2                 >         0.11
11              N#Cc1ccc2c(c1)[I+]c1ccccc1-2                 =         0.75
12               COc1ccc2c(c1)-c1ccccc1[I+]2                 =          2.3
13                 c1ccc2c(c1)[I+]c1ccccc1-2                 =          6.3
14                Fc1ccc2c(c1)-c1ccccc1[I+]2                 =          5.3
15                Fc1ccc2c(c1)[I+]c1ccccc1-2                 =          5.3
16                 Clc1cccc2c1-c1ccccc1[I+]2                 <          2.4

###

tested on: Plasmodium falciparum; test: Growth inhibition of CQ-sensitive GFP-fused Plasmodium falciparum D10 after 90 hrs by ethidium bromide staining based flow cytometry; type: functional, organism-based; conditions: D10, 90 h
Rule for this label: yes (1) means IC50 is less than 100 nM; no (0) means IC50 is at least 100 nM.

> print(dat)
                             chemical.smiles  assigned.class
 1             COc1ccc(Cl)c2c1[I+]c1ccccc1-2          no (0)
 2           FC(F)(F)c1cccc2c1-c1ccccc1[I+]2          no (0)
 3                 c1ccc2c(c1)[I+]c1ccccc1-2          no (0)
 4  Cc1ccc2c(c1)[I+]c1ccccc1-2.O=S(=O)([O-])C(F)(F)F          no (0)
 5             Clc1cccc2c1[I+]c1cccc(Cl)c1-2          no (0)
 6                  Fc1cccc2c1-c1ccccc1[I+]2         yes (1)
 7              Cc1cccc2c1-c1cccc(Cl)c1[I+]2          no (0)
 8                Cc1ccc2c(c1)-c1ccccc1[I+]2         yes (1)
 9          FC(F)(F)Oc1cccc2c1-c1ccccc1[I+]2          no (0)
10              Fc1ccc(Cl)c2c1[I+]c1ccccc1-2          no (0)
11                 Clc1cccc2c1-c1ccccc1[I+]2         yes (1)
12                Fc1ccc2c(c1)[I+]c1ccccc1-2         yes (1)
13              N#Cc1ccc2c(c1)[I+]c1ccccc1-2         yes (1)
14                  Cc1cccc2c1-c1ccccc1[I+]2         yes (1)
15               Fc1cccc2c1-c1c(F)cccc1[I+]2          no (0)
16               Clc1ccc2c(c1)[I+]c1ccccc1-2         yes (1)
17              Fc1cccc2c1-c1c(Cl)cccc1[I+]2          no (0)
18           c1ccc2c(c1)[I+]c1c-2ccc2ccccc12          no (0)
19              N#Cc1ccc2c(c1)-c1ccccc1[I+]2         yes (1)
20               Clc1ccc2c(c1)-c1ccccc1[I+]2         yes (1)
21              Cc1ccc(Cl)c2c1[I+]c1ccccc1-2          no (0)
22              Fc1cccc2c1-c1cccc(Cl)c1[I+]2          no (0)
23                 COc1cccc2c1-c1ccccc1[I+]2          no (0)
24             Clc1ccc(Cl)c2c1[I+]c1ccccc1-2          no (0)
